- test-target: Beta-2 adrenergic receptor (Homo sapiens)
- Sequence (P07550 whole entry): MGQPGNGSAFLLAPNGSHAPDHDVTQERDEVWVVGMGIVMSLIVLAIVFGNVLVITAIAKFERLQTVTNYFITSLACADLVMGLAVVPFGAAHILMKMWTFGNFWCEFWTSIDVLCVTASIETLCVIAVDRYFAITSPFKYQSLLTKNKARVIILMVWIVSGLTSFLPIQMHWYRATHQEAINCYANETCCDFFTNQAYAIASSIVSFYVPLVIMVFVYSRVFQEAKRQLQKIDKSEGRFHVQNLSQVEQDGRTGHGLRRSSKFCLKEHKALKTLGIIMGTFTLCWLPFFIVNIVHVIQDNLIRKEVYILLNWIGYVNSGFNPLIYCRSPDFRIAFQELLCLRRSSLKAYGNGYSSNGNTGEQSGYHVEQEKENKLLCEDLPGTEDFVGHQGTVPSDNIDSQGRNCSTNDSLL
- protocol-description: Agonist activity at human beta-2 adrenergic receptor expressed in CHO cells assessed as induction of intracellular cAMP production
observed-property: pEC50
Notebook: values listed as pEC50 are -log10 of the concentration (mol/L).

IN: What value of measured pEC50 is listed for O=c1ccc2c([C@@H](O)CNCCCCCCCCCN3CCC(Oc4nn(-c5c(O)cccc5F)c5c4CCCC5)CC3)ccc(O)c2[nH]1 ?
OUT: 7.85

* * *

- test-target: Sodium-dependent noradrenaline transporter (Homo sapiens)
- Sequence (P23975 whole entry): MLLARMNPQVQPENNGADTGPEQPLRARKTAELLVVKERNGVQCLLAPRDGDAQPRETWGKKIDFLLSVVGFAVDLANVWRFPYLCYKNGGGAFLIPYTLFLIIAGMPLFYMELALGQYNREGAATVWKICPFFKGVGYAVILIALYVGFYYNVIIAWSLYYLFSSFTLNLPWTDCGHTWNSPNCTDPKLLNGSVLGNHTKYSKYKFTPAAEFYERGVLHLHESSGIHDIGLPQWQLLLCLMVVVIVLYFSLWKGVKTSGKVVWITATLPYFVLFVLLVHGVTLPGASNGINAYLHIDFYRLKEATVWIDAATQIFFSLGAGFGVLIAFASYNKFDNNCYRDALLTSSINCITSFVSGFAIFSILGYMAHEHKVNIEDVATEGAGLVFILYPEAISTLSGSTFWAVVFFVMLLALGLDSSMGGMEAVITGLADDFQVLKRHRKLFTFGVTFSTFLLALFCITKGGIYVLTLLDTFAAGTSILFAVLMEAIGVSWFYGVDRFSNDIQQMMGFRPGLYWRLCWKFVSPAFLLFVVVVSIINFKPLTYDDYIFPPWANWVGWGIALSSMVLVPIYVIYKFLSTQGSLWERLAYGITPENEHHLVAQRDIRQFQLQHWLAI
observed-property: pKi
Please report pKi as the negative decimal logarithm of the molar concentration, giving only the number.

IN: Short answer please: pKi, Sodium-dependent noradrenaline transporter (Homo sapiens), entry Fc1cccc(F)c1-n1nc(OC2CCNCC2)c2ccccc21
OUT: 8.17

* * *

- protocol-description: Bronchodilatory action in guinea pig trachea assessed as inhibition of electrical field-stimulated acetylcholine release in the presence of beta-2 adrenergic receptor antagonist propranolol
- Type: functional, tissue-based, Cavia porcellus
observed-property: EC50 (nM)
Give the value in nM but do not write nM after it.

IN: Consider the molecule shown here: O=c1ccc2c([C@@H](O)CNCCCCCCCCCN3CCC(Oc4nn(-c5c(O)cccc5F)c5c4CCCC5)CC3)ccc(O)c2[nH]1 What is its recorded EC50?
OUT: 27

* * *

- protocol-description: Permeability across human Caco2 cells
- Assay type: ADME, cell-based
- particulars: Caco-2, read-out: permeability
observed-property: Papp

IN: Given the entry O=c1ccc2c([C@@H](O)CNCCCCCCCCCN3CCC(Oc4nn(-c5c(O)cccc5F)c5c4CCCC5)CC3)ccc(O)c2[nH]1 , report its measured Papp.
OUT: < 1 ×10⁻⁶ cm/s

* * *

- Organism: Cavia porcellus
- protocol-description: Bronchodilatory action in guinea pig trachea assessed as inhibition of electrical field-stimulated acetylcholine release
- Assay type: functional
observed-property: EC50
Entry format: amount then unit.

IN: Query: EC50; subject: O=c1ccc2c([C@@H](O)CNCCCCCCCCCN3CCC(Oc4nn(-c5c(O)cccc5F)c5c4CCCC5)CC3)ccc(O)c2[nH]1
OUT: 28 nM

* * *

- test-target: Beta-1 adrenergic receptor (Homo sapiens)
- Sequence (P08588 whole entry): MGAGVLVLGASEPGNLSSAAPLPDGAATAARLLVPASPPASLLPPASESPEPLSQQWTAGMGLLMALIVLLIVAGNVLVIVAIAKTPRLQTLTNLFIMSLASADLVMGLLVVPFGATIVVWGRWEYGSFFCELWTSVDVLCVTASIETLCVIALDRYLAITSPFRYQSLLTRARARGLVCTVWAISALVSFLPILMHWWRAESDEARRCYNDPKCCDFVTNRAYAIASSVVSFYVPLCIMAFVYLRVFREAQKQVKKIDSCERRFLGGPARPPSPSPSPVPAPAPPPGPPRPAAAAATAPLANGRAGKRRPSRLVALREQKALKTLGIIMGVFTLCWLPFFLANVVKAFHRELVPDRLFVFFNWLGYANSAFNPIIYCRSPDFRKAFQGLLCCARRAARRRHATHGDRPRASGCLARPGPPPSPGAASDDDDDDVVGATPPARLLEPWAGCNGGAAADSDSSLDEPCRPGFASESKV
- protocol-description: Agonist activity at beta-1 adrenergic receptor
observed-property: EC50

IN: What reported EC50 corresponds to O=c1ccc2c([C@@H](O)CNCCCCCCCCCN3CCC(Oc4nn(-c5c(O)cccc5F)c5c4CCCC5)CC3)ccc(O)c2[nH]1 on Beta-1 adrenergic receptor (Homo sapiens)?
OUT: > 10 µM

* * *

- protocol-description: Metabolic stability in human liver microsomes
- Format: ADME, Microsome
- particulars: read-out: Stability
Reported microsomal CLint values for a set of compounds

IN: Requested read-out: microsomal CLint. Entry: O=c1ccc2c([C@@H](O)CNCCCCCCCCCN3CCC(Oc4nn(-c5c(O)cccc5F)c5c4CCCC5)CC3)ccc(O)c2[nH]1
OUT: 25 µL/min/mg

IN: What does the data say about its microsomal CLint? Entry: Cc1ccc(O)c([C@H](CCN(C(C)C)C(C)C)c2ccccc2)c1
OUT: < 8 µL/min/mg

IN: Data request, read-out microsomal CLint, for Fc1cccc(F)c1-n1nc(OC2CCNCC2)c2ccccc21
OUT: < 8 µL/min/mg

IN: If you can, please state the reported microsomal CLint value of Oc1cccc(F)c1-n1nc(OC2CCNCC2)c2ccccc21 .
OUT: < 8 µL/min/mg

IN: Request the reported microsomal CLint associated with Oc1cccc(F)c1-n1nc(OC2CCNCC2)c2c1CCCC2
OUT: < 8 µL/min/mg
